# z-scoreHeLa mean listing for each entry below
# System: HeLa cells
# assayInfo: Compound screen by flow cytometry: HeLa cell count as surrogate readout of cell viability (z-scoreHeLa); further: test concentration or dose not given here
# Type: cell-based, human
# conditions: PKIS compound screen, HeLa cell count, mean of 3 replicates
measurementName: z-scoreHeLa mean

1. COc1ccc(S(=O)(=O)NC2CCN(c3cc(C)nc(Nc4cccc(C#N)c4)n3)CC2)cc1 [GSK1653539A]: -0.64
2. c1ccc(-c2n[nH]cc2Nc2ccnc3ccccc23)nc1 [GW694077X]: 0.01
3. CCCNC(=O)Nc1ccc(N(C)c2ccnc(NC3CC3)n2)cc1 [GW818933X]: -0.08
4. COc1cc(Nc2nccc(N3CCC(NC(=O)Nc4ccc5c(c4)OCO5)C3)n2)cc(OC)c1OC (stereo not shown) [GSK1379766A]: -0.17
5. O=C(Nc1n[nH]c2nc(-c3ccccc3)c(Br)cc12)C1CC1: 0.24
6. CC(C)c1nc(-c2ccc(F)c(NS(=O)(=O)c3c(F)cccc3F)c2)c(-c2ccnc(Nc3ccc(N4CCOCC4)nc3)n2)s1 [GSK1804250A]: -1.06
7. Cc1ccc(Nc2ccnc(Nc3cccc(C(N)=O)c3)n2)cc1O [GW575808A]: 0.31
